Biological target: LCK (human)
Assay: radiometric filter-binding kinase assay, Kinase HotSpot
Details: compound 0.5 µM; ATP 10 µM
Would you kindly list residual activity for each of these compounds?
Numbers only, in %.

Query: Note down residual activity recorded for CC(C)c1nn(-c2c(Cl)cccc2Cl)c2nc(Cc3ccc(OCCO)cc3)nc(O)c12
Response: 88.6

Query: Note down residual activity recorded for Cn1cnc2cc3c(Nc4cccc(Br)c4)ncnc3cc21
Response: 47.7

Consider the following items and state reported residual activity for each.
1. CCN(CC)CCCCN1c2ccccc2Oc2ccc(Cl)cc21
2. Nc1nccc(-c2c(-c3ccc(F)cc3)ncn2C2CCNCC2)n1
3. Oc1ccc(Nc2nc(-c3ccc(Cl)cc3)cs2)cc1

Response:
94.6
80.1
99.8

Consider the following items and state reported residual activity for each.
1. O=C1NC(=O)/C(=C\c2ccc3nccnc3c2)S1
2. COc1cc2ncc(-c3ccccc3)nc2cc1OC
3. O=C1NC(=O)C(c2c[nH]c3ccccc23)=C1c1c[nH]c2ccccc12
4. Cn1sc(=O)n(Cc2ccccc2)c1=O
5. COc1ccc(OC)c2c(=S)c3ccccc3[nH]c12
6. O=C(O)/C=C/c1cc(Br)c(Br)c(Br)c1Br
7. O=C(Nc1cccc(Nc2cc(Nc3cccc(C(F)(F)F)c3)ncn2)c1)C1CC1
8. COc1cc2ncnc(N3CCN(C(=O)Nc4ccc(Oc5ccccc5)cc4)CC3)c2cc1OC

Response:
[98.6, 93.5, 85.1, 103, 94.7, 99.3, 100, 92.3]

Consider the following items and state reported residual activity for each.
1. O=C1Nc2ccccc2/C1=C1/Nc2ccccc2/C1=N\OCCC(O)CO (stereo not drawn)
2. CC(C)[C@H](CO)Nc1nc(Nc2cc(N)cc(Cl)c2)c2ncn(C(C)C)c2n1
3. CN(C)C[C@H]1CCn2c(c(C3=C(c4cn(C)c5ccccc45)C(=O)NC3=O)c3ccccc32)C1
4. Nc1nnc2[nH]c3ccccc3nc1-2

Response:
29.7
70.2
96.5
93.6

Consider the following items and state reported residual activity for each.
1. O=C1NC(=O)C(c2cn(CCCO)c3ncccc23)=C1c1cnccn1
2. CN([C@@H](Cc1ccc(OS(=O)(=O)c2cccc3cnccc23)cc1)C(=O)N1CCN(c2ccccc2)CC1)S(=O)(=O)c1cccc2cnccc12

Response:
95.8
97.5

Consider the following items and state reported residual activity for each.
1. O=C(CCCc1ccc(-c2ccccc2F)cc1)Nc1ccc(O)cc1
2. CC(=O)O/N=C1\C(=C2\C(=O)Nc3cc(Br)ccc32)Nc2ccccc21
3. Cc1nc2cc3nc(-c4cccs4)cnc3cc2n1C
4. Cn1nc2c3c(cccc31)C(=O)c1ccccc1-2

Response:
95.5
53.5
86.3
99.2
